// provenance: ChEMBL document CHEMBL1148818

# TEST_NAME: in vivo
# PROTOCOL_CONDITIONS: Sprague-Dawley, rat
ASSAY_METRIC: bioavailability (%)

entry_smiles=Cc1ccc2c(-c3nnc(SCCCN4CCc5ccc(-c6cc(C)on6)cc5CC4)n3C)cccc2n1 assay_metric=bioavailability quantitative_result=24
entry_smiles=Cc1ccc2c(-c3nnc(SCCCN4CCc5ccc(-c6ncc(C)o6)cc5CC4)n3C)cccc2n1 assay_metric=bioavailability quantitative_result=27

====

# TEST_NAME: in vivo
# PROTOCOL_CONDITIONS: Sprague-Dawley, rat, whole blood
ASSAY_METRIC: clearance (mL/min/kg)

I = Cc1ccc2c(-c3nnc(SCCCN4CCc5ccc(-c6ncc(C)o6)cc5CC4)n3C)cccc2n1
II = Cc1ccc2c(-c3nnc(SCCCN4CCc5ccc(-c6cc(C)on6)cc5CC4)n3C)cccc2n1
Determine, for I and II , which has the greater value of clearance. Pick one and reply with its label.
I
(I: 59 mL/min/kg, II: 38 mL/min/kg)
